targetOfAssay: PTPN2 (B16F10.4 cells) (Mus musculus)
Construct: HiBiT; host or cells: B16F10.4
Sequence (Q06180 1-406): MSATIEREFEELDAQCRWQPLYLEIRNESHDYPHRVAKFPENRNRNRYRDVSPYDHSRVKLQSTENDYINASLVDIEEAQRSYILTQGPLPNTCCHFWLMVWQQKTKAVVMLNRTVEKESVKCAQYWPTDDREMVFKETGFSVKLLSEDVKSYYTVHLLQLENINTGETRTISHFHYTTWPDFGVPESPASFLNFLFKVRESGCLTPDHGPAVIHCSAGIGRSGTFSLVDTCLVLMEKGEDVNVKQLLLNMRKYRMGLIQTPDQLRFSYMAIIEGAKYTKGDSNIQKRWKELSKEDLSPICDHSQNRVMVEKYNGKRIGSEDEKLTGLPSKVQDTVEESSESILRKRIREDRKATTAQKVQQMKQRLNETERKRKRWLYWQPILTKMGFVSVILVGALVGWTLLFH
experimentNotes: HiBiT Degradation B16F10.4 PTPN2
Format: cell-based
testParameters: 24.0 hours
measureName: DC50

Ask: Give DC50 for Cn1c(=O)n(C2CCC(=O)NC2=O)c2ccc(-c3ccc(CC(=O)Nc4cccc(CS(=O)(=O)N5CC[C@H](Nc6cccc(-c7sc(C(=O)O)c(OCC(=O)O)c7Cl)c6)CC5(C)C)c4)cc3F)cc21 (stereo partly shown) [Example 178] tested on PTPN2 (B16F10.4 cells) (Mus musculus).
Reply: 50 to 200 nM

Ask: Tell me DC50 of CC1(C)C[C@@H](Nc2cccc(-c3sc(C(=O)O)c(OCC(=O)O)c3Cl)c2)CCN1S(=O)(=O)Cc1cccc(NC(=O)COC2CCN(C(=O)CNc3cccc4c3CN(C3CCC(=O)NC3=O)C4=O)CC2)c1 (stereo partly shown) [Example 90] when tested on PTPN2 (B16F10.4 cells) (Mus musculus).
Reply: 200 to 1000 nM

Ask: Output reported DC50 of the compound CC1(C)C[C@@H](Nc2cccc(-c3sc(C(=O)O)c(OCC(=O)O)c3Cl)c2)CCN1S(=O)(=O)Cc1cccc(NC(=O)NCCC2CCN(c3ccc4c5c(cccc35)C(=O)N4C3CCC(=O)NC3=O)CC2)c1 (stereo partly shown) [Example 219] on PTPN2 (B16F10.4 cells) (Mus musculus).
Reply: < 50 nM

Ask: Specify the recorded DC50 for Cn1c(=O)n(C2CCC(=O)NC2=O)c2ccc(N3CC4(CN(C(=O)Nc5cccc(CS(=O)(=O)N6CC[C@H](Nc7cccc(-c8sc(C(=O)O)c(OCC(=O)O)c8Cl)c7)CC6(C)C)c5)C4)C3)cc21 (stereo partly shown) [Example 140] , system: PTPN2 (B16F10.4 cells) (Mus musculus).
Reply: 50 to 200 nM
